# MEASUREMENT_NOTES: Stability of esters of pyroglutamic acid in aqueous buffer (half-life of hydrolysis, intact ester by HPLC)
# CONDITIONS_USED: aqueous buffer, pH 7.8

{"columns": ["MOLECULE", "half-life (h)"],
 "data": [
  ["CCOC(=O)[C@@H]1CCC(=O)N1", 24]
]}

---

# MEASUREMENT_NOTES: Stability of esters of pyroglutamic acid in aqueous buffer (half-life of hydrolysis, intact ester by HPLC)
# CONDITIONS_USED: aqueous buffer, pH 7.4

{"columns": ["COMPOUND", "half-life"],
 "data": [
  ["CCOC(=O)[C@@H]1CCC(=O)N1 [Pyroglutamic acid ethyl ester, pyroglutamic acid ethyl ester]", "48 h"]
]}

---

# MEASUREMENT_NOTES: physchem
# CONDITIONS_USED: 100 mm phosphate buffer, pH 4
# reported half-life; entries follow

{"columns": ["COMPOUND", "half-life"],
 "data": [
  ["CCOC(=O)C(C)OC(=O)C1CCC(=O)N1 (stereo not shown) [Ethyl-2-[pyroglutamoyloxy]-n-propionate, ethyl-2-[pyroglutamoyloxy]-n-propionate]", "70.8 days"],
  ["CCCCCCCCOC(=O)[C@@H]1CCC(=O)N1", "750 days"],
  ["CCCCCCOC(=O)[C@@H]1CCC(=O)N1", "750 days"],
  ["CCCCOC(=O)[C@@H]1CCC(=O)N1", "625 days"]
]}

---

# MEASUREMENT_NOTES: Stability of esters of pyroglutamic acid in aqueous buffer (half-life of hydrolysis, intact ester by HPLC)
# CONDITIONS_USED: aqueous buffer, pH 6.5
MEASURE: half-life (days)

{"columns": ["MOLECULE", "REPORTED_RESULT"],
 "data": [
  ["CCOC(=O)[C@@H]1CCC(=O)N1 [Pyroglutamic acid ethyl ester, pyroglutamic acid ethyl ester]", 12]
]}

---

# MEASUREMENT_NOTES: Stability of esters of pyroglutamic acid in aqueous buffer (half-life of hydrolysis, intact ester by HPLC)
# CONDITIONS_USED: 100 mm phosphate buffer, pH 4
MEASURE: half-life (days)

{"columns": ["MOLECULE", "UNIT_OF_MEASURE", "REPORTED_RESULT"],
 "data": [
  ["CCOC(=O)[C@@H]1CCC(=O)N1", "days", 458]
]}

---

# MEASUREMENT_NOTES: Stability of esters of pyroglutamic acid in aqueous buffer (half-life of hydrolysis, intact ester by HPLC)
# CONDITIONS_USED: 100 mm phosphate buffer, pH 7
MEASURE: half-life

{"columns": ["MOLECULE", "MEASURE", "REPORTED_RESULT"],
 "data": [
  ["CCOC(=O)[C@@H]1CCC(=O)N1", "half-life", "58 h"]
]}
